System: Rattus norvegicus
Assay notes: Area under curve value 24 hr after 10 mg/kg oral administration in rats
Assay type: ADME, organism-based
Set-up: time < 24 hr, dose 10 mg/kg, route oral
Experimental conditions: in vivo
Quantity measured: AUC 0-24h (ng·h/mL)
Quick reminder: number only, in ng·h/mL, skip the unit.

*Q* Note AUC 0-24h for the compound shown: COC[C@@H](c1ccc(C(F)(F)F)cc1)N1CCN(C2(C)CCN(C(=O)c3c(C)ncnc3C)CC2)C[C@@H]1C
*A* 21000

###

Assay notes: Bioavailability after administration of 10 mg/kg in rats
Type: ADME, organism-based
Experimental conditions: rat, in vivo, read-out: Bioavailabiility
Quantity measured: bioavailability (%)
Answer format: numeric, % implied, no suffix.

*Q* Provide bioavailability value for the following molecule: COC[C@@H](c1ccc(C(F)(F)F)cc1)N1CCN(C2(C)CCN(C(=O)c3c(C)ncnc3C)CC2)C[C@@H]1C [VICRIVIROC]
*A* 100

###

System under test: UniProtKB P08172
Sequence (P08172 whole entry): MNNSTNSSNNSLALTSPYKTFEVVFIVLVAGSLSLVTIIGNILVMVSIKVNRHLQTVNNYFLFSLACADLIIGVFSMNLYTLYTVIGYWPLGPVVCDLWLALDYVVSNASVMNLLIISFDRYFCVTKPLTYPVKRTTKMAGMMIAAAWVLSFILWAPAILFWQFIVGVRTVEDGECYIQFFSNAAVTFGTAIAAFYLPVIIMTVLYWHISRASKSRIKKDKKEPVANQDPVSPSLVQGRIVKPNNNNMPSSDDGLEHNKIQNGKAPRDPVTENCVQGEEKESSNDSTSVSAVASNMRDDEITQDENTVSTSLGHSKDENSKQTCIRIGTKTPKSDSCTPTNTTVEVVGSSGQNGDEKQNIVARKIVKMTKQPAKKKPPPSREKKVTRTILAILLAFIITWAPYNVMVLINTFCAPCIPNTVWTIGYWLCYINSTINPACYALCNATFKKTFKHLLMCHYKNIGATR
Assay notes: Antagonistic activity against Muscarinic acetylcholine receptor M2
pKi: −log10 of the molar value.
I'd be grateful if you could share measured pKi for these entries.

*Q* Read off the recorded pKi for Cc1ncnc(C)c1C(=O)N1CCC(C)(N2CCN([C@@H](Cc3ccccc3)c3ccc(C(F)(F)F)cc3)[C@@H](C)C2)CC1
*A* < 5.24

*Q* Supply reported pKi belonging to this compound: COC[C@@H](c1ccc(C(F)(F)F)cc1)N1CCN(C2(C)CCN(C(=O)c3c(C)ncnc3C)CC2)C[C@@H]1C
*A* < 5.00

*Q* // fetch pKi given entry Cc1ncnc(C)c1C(=O)N1CCC(C)(N2CCN([C@@H](CCC(F)(F)F)c3ccc(C(F)(F)F)cc3)[C@@H](C)C2)CC1
*A* < 5.17

###

System under test: Muscarinic acetylcholine receptor M1 (Homo sapiens)
Sequence (P11229 whole entry): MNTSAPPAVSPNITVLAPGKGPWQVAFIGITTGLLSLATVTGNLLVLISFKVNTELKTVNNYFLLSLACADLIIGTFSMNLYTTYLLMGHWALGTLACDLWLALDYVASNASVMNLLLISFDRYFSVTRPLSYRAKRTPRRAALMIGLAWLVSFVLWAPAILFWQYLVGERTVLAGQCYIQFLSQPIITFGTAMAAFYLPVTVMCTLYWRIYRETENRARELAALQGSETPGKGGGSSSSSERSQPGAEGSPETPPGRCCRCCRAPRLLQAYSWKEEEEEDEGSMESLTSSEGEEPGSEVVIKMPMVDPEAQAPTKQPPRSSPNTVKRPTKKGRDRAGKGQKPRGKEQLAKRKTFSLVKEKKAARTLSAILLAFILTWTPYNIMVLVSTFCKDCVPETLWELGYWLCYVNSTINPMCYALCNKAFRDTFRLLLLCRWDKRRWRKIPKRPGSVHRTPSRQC
Assay notes: Antagonistic activity against muscarinic M1 receptor
pKi: −log10 of the molar value.
Quantity measured: pKi

*Q* Provide one value: measured pKi of Cc1ncnc(C)c1C(=O)N1CCC(C)(N2CCN([C@@H](CCC(F)(F)F)c3ccc(C(F)(F)F)cc3)[C@@H](C)C2)CC1
*A* < 5.43

*Q* Write down pKi measured for item COC[C@@H](c1ccc(C(F)(F)F)cc1)N1CCN(C2(C)CCN(C(=O)c3c(C)ncnc3C)CC2)C[C@@H]1C
*A* < 5.00

*Q* Quote pKi reported for Cc1ncnc(C)c1C(=O)N1CCC(C)(N2CCN([C@@H](Cc3ccccc3)c3ccc(C(F)(F)F)cc3)[C@@H](C)C2)CC1 please.
*A* < 5.41
